Values from the supplement of paper PMC6555819

# Tested on: PPARg homodimer (NR concentration 180 nM)
# assay.procedure: PBM binding z-score (relative to random genomic background probes); higher = stronger binding; sequences stand for … in GC…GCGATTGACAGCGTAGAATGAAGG
measure: PBM binding z-score
One number for each entry.

Each of the following entries comes with a recorded value; kindly state PBM binding z-score for each.
1. CTCGAAAGGTCGGTAGAGGTGAGTATACGGATAA
2. TCTAGTAGATCAGCAGGTTAAGAAAGCTGGCCAA
3. CATCGGAGGACAGAAGGTCAGAGCTGTCCGCTTT
4. TCTGCTAGGTCAGTTGGTCAGTTAACGAGCTGCC
5. ATCGAAAGGTCGTGAGGTGAGTAGACAGAAAGGC
6. CGAACTAGGTCATTGACAAGACAGTGAATAGTAA

1. 1.1
2. 0.292
3. 0.568
4. 0.428
5. 1.44
6. 0.882

* * *

Give measured PBM binding z-score for each item. Keep answers brief.
# System: LXRb homodimer (NR concentration 270 nM)
# assay.procedure: PBM binding z-score (relative to random genomic background probes); higher = stronger binding; sequences stand for … in GC…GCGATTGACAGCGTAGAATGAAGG

{"columns": ["construct.sequence", "test.target", "PBM binding z-score"],
 "data": [
  ["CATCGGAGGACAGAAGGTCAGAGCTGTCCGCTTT", "LXRb homodimer (NR concentration 270 nM)", -0.44],
  ["TCTTGAAGATCAATAGAGGTTAAGAAAGTGCGCT", "LXRb homodimer (NR concentration 270 nM)", -0.548],
  ["CCGCCTGGGGCAAGGTTACCATAACGCACAGCCA", "LXRb homodimer (NR concentration 270 nM)", -1.07]
]}

Each of the following entries comes with a recorded value; kindly state PBM binding z-score for each.
1. TCTGCTAGGTAAACGATGGTCAGCTAATCTGCTA
2. AGAACGAGGGCATTGAGTTGATAGCACGGGTGGC
3. TAGCCTAGGACATGGGCCAGTATACCACGCGAAC
4. AGAATGAGGTTATTAAGATCAGGGTATTGCGGTC
5. TCAGACAGGTGAAGGTAACGCAGGTACGCAGTCG
6. AATGCAGGGTCACTAGGCCAGAGTAGGTACGAAT
7. TATAGCAGGCCAGAGGGTCACTCAAGAGGTACGG
8. GGAACGAGGGCAAGTTGATAGAAGAGTTTGATGG

1. -1.07
2. -0.545
3. -0.673
4. 0.122
5. -0.402
6. 0.179
7. -0.338
8. -0.242

What measured PBM binding z-score goes with CCTATTAGTTTACCATAAGGGCAACCGAAGCTCG ?
0.527

* * *

# Test system: PPARa:RXRa (NR concentration 270 nM, RXRa partner concentration 90 nM)
# assay.procedure: PBM binding z-score (relative to random genomic background probes); higher = stronger binding; sequences stand for … in GC…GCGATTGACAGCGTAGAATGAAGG
Kind request: treat 2 as inclusive, so PBM binding z-score at 2 or higher is satisfied, anything lower is not satisfied.

{"columns": ["construct.sequence", "class.name"],
 "data": [
  ["TGTCAAAGTTCGAAGGTAACGTAAGTATCCACAC", "satisfied"]
]}

Determine whether this sequence has PBM binding z-score no lower than 2: ACTATTAGTTGAGACGAGGGCACCCGATAGGTTG
not satisfied

Determine whether this sequence has PBM binding z-score no lower than 2: TAGCCTAGGTCAGGTCGGGCCAGTATACGCTATA
not satisfied

Determine whether this sequence has PBM binding z-score no lower than 2: AAAACGAGGGCAATGAGTTGATAGCACGGGTGGC
not satisfied

Determine whether this sequence has PBM binding z-score no lower than 2: GCGACTGGGGCATCAGCAGGTTACCATTACTTAA
not satisfied

Determine whether this sequence has PBM binding z-score no lower than 2: TCAGACAGGTGAAGGTACCTCAGGTACGCAGTCG
not satisfied
